Consider the following pIC50 values measured on Beta-glucuronidase (Homo sapiens, UniProt P08236).
Sequence (P08236 whole entry): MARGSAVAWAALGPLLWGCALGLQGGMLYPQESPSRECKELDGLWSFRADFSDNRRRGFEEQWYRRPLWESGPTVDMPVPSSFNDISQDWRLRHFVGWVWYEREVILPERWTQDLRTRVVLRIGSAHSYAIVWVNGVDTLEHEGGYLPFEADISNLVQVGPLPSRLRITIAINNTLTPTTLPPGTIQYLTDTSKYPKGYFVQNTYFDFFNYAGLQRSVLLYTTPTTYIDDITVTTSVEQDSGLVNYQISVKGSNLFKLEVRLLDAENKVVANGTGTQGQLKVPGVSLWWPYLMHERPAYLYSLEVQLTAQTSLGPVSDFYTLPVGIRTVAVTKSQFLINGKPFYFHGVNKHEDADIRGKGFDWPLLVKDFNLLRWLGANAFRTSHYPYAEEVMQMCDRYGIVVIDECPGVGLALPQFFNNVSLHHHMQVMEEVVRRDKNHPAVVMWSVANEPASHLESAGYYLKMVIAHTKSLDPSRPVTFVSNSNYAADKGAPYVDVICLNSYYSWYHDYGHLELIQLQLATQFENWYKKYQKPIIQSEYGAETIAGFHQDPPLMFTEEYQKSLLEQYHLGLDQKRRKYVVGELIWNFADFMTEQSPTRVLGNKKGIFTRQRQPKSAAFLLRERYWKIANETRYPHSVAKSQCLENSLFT
Lab note — pIC50 values are minus log10 of concentrations in M.

Some compounds with recorded pIC50:
- STRUCTURE_NOTATION: "COc1ccc(/C=N/NC(=O)c2cc3cc(Cl)ccc3[nH]2)c(O)c1"
  pIC50: 4.67
- STRUCTURE_NOTATION: "COc1ccc(/C=N/NC(=O)c2cc3cc(Cl)ccc3[nH]2)cc1O"
  pIC50: 4.65
- STRUCTURE_NOTATION: "O=C(N/N=C/c1cccc(O)c1O)c1cc2cc(Cl)ccc2[nH]1"
  pIC50: 4.87

# input for lookup
# input Recorded pIC50 of O=C(N/N=C/c1ccccn1)c1cc2cc(Cl)ccc2[nH]1 , please.
# output 4.64
